Recorded values, source ChEMBL document CHEMBL1782055.

# Procedure summary: Cytotoxicity against african green monkey Vero cells after 24 hrs by resazurin assay
# Assay type: cell-based
# Condition notes: chlorocebus sabaeus
In plain terms, low CC50 at 24 h, meaning strictly below 10 µM, gives 1, and everything else gives 0.

Check out these entries, answers already filled in.
compound_string=CCCCO[C@@H]1C=CC(=O)[C@@H](COC(=O)C(C)(C)C)O1 cat=0
compound_string=Cc1ccc(S(=O)(=O)OC[C@H]2O[C@H](OC(C)C)C=CC2=O)cc1 cat=0
compound_string=CC(C)O[C@@H]1C=CC(=O)[C@@H](COC(=O)C(C)(C)C)O1 cat=0

Quick check: does CC(C)(C)C(=O)OC[C@H]1O[C@H](OCC2CC2)C=CC1=O have CC50 at 24 h under 10 µM?
0

Quick check: does CCCCCCO[C@@H]1C=CC(=O)[C@@H](COC(=O)C(C)(C)C)O1 have CC50 at 24 h under 10 µM?
1

###

# Procedure summary: Selectivity index, ratio of CC50 for african green monkey Vero cells to MIC for Mycobacterium tuberculosis H37Rv
# Type: functional
Assay endpoint: Selectivity Index
Please state the value as a number alone, without comment.

Record CC(C)O[C@@H]1C=CC(=O)[C@@H](COC(=O)C(C)(C)C)O1 . Reported Selectivity Index: 1.09

Record CC(C)CO[C@@H]1C=CC(=O)[C@@H](COC(=O)C(C)(C)C)O1 . Reported Selectivity Index: 2.56

Record CCCCCO[C@@H]1C=CC(=O)[C@@H](COC(=O)C(C)(C)C)O1 . Reported Selectivity Index: 1.41

Record CC(=O)OC[C@H]1O[C@H](OCCC(C)C)C=CC1=O . Reported Selectivity Index: 6.6

Record CC(=O)OC[C@H]1O[C@H](OC(C)C)C=CC1=O . Reported Selectivity Index: 7.6

Record CC(C)(C)C(=O)OC[C@H]1O[C@H](OCC2CC2)C=CC1=O . Reported Selectivity Index: 6.96

Record CC(C)CCO[C@@H]1C=CC(=O)[C@@H](COC(=O)C(C)(C)C)O1 . Reported Selectivity Index: 13.5

Record CCCCCCO[C@@H]1C=CC(=O)[C@@H](COC(=O)C(C)(C)C)O1 . Reported Selectivity Index: 0.48

Record CCCCO[C@@H]1C=CC(=O)[C@@H](COC(=O)C(C)(C)C)O1 . Reported Selectivity Index: 3.85

Record CC(=O)OC[C@H]1O[C@H](OCCC(C)C)C=C([C@H](O)c2ccc([N+](=O)[O-])cc2)C1=O . Reported Selectivity Index: 1.8

Record Cc1ccc(S(=O)(=O)OC[C@H]2O[C@H](OC(C)C)C=CC2=O)cc1 . Reported Selectivity Index: 1.4

###

# Procedure summary: Cytotoxicity against african green monkey Vero cells after 24 hrs by resazurin assay
# Format: cell-based
# Condition notes: chlorocebus sabaeus
In plain terms, low CC50 at 24 h, meaning strictly below 20 µM, gives 1.0, and everything else gives 0.0.

Check out these entries, answers already filled in.
compound_string=CCCCCO[C@@H]1C=CC(=O)[C@@H](COC(=O)C(C)(C)C)O1 cat=1.0
compound_string=CC(C)CCO[C@@H]1C=CC(=O)[C@@H](COC(=O)C(C)(C)C)O1 cat=0.0
compound_string=CC(=O)OC[C@H]1O[C@H](OC(C)C)C=CC1=O cat=0.0

Quick check: does CC(C)CO[C@@H]1C=CC(=O)[C@@H](COC(=O)C(C)(C)C)O1 have CC50 at 24 h under 20 µM?
0.0

Quick check: does CC(=O)OC[C@H]1O[C@H](OCCC(C)C)C=C([C@H](O)c2ccc([N+](=O)[O-])cc2)C1=O have CC50 at 24 h under 20 µM?
1.0
